Hey, just so you know, these numbers are from patent US8524705B2.

Please respond with reported MIC for every item in the list.
Test system: Aspergillus terreus AT49
Assay: Measurement of Minimum Inhibitory Concentrations (MICs), A. terreus 49
Format: cell-based
Conditions: RPMI medium containing 2% glucose, 0.135M MOPS buffer, banded into grades

{"columns": ["testSmiles", "reportedEndpoint", "assayValue"],
 "data": [
  ["CCc1ccnc(N2CCN(c3ccc(NC(=O)C(=O)c4c(-c5ccccc5)cc5n4CCCC5)cc3)CC2)c1", "MIC", "< 1 µg/mL"],
  ["O=C(Nc1ccc2c(c1)OCC2)C(=O)c1c(-c2ccccc2)cc2n1CCCC2", "MIC", "< 1 µg/mL"]
]}

Now, please, on to the next compound.
**Q:** Request: MIC, test system Aspergillus terreus AT49, entry CCc1cccc(N2CCN(c3ccc(NC(=O)C(=O)c4c(-c5ccccc5)cc5n4CCCC5)cc3)CC2)n1
**A:** < 1 µg/mL

====

System: Aspergillus flavus
Assay: Measurement of Minimum Inhibitory Concentrations (MICs), A. flavus
Format: cell-based
Conditions: RPMI medium containing 2% glucose, 0.135M MOPS buffer, banded into grades
reportedEndpoint: MIC

Sample answers from the record:
{"columns": ["testSmiles", "MIC"],
 "data": [
  ["Cc1cc(C)nc(N2CCN(c3ccc(NC(=O)C(=O)c4c(-c5ccccc5)cc5n4CCCC5)cc3COCCCN3CCN(C)CC3)CC2)c1", "> 10 µg/mL"],
  ["Cc1cc(C)nc(N2CCN(c3ccc(NC(=O)C(=O)c4c(-c5ccccc5)cc5n4CCCC5)c(Cl)c3)CC2)c1", "< 1 µg/mL"]
]}

Record MIC per entry; entries follow.
1. Cc1ccc(N2CCN(c3ccc(NC(=O)C(=O)c4c(-c5ccccc5)cc5n4CCCC5)cc3)CC2)nc1
2. COc1cc(C)nc(N2CCN(c3ccc(NC(=O)C(=O)c4c(-c5ccccc5)cc5n4CCCC5)cc3)CC2)c1
3. Cc1cc(C)nc(N2CCN(c3ccc(NC(=O)C(=O)c4c(-c5ccccc5)cc5n4CCCC5)cc3COCCCN3CCOCC3)CC2)c1

**A:**
< 1 µg/mL
1 to 10 µg/mL
> 10 µg/mL

Record MIC per entry; entries follow.
1. O=C(Nc1ccc(N2CCN(c3ccc(CN4CCOCC4)cn3)CC2)cc1)C(=O)c1c(-c2ccccc2)cc2n1CCCC2
2. COc1cc(C)cc(N2CCN(c3ccc(NC(=O)C(=O)c4c(-c5ccccc5)cc5n4CCCC5)cc3)CC2)n1
3. COCc1cc(NC(=O)C(=O)c2c(-c3ccccc3)cc3n2CCCC3)ccc1N1CCN(c2cc(C)cc(C)n2)CC1
4. Cc1cc(C)nc(N2CCN(c3ccc(NC(=O)C(=O)c4c(C5CCOCC5)cc5n4CCCC5)cc3)CC2)c1
5. Cc1cc(C)nc(OCCOc2ccc(NC(=O)C(=O)c3c(-c4ccccc4)cc4n3CCCC4)cc2)c1

**A:**
1: < 1 µg/mL; 2: < 1 µg/mL; 3: < 1 µg/mL; 4: < 1 µg/mL; 5: < 1 µg/mL

====

Test system: Aspergillus terreus AT49
Assay: Measurement of Minimum Inhibitory Concentrations (MICs), A. terreus 49
Assay type: cell-based
Conditions: RPMI medium containing 2% glucose, 0.135M MOPS buffer, banded into grades
reportedEndpoint: MIC

Sample answers from the record:
{"columns": ["testSmiles", "assayValue"],
 "data": [
  ["Cc1cc(C)nc(N2CCC(O)(c3ccc(NC(=O)C(=O)c4c(-c5ccccc5)cc5n4CCCC5)cc3)CC2)c1", "< 1 µg/mL"],
  ["Cc1cc(C)nc(OCCOc2ccc(NC(=O)C(=O)c3c(-c4ccccc4)cc4n3CCCC4)cc2)c1", "< 1 µg/mL"],
  ["Cc1cc(C)nc(N2CCN(c3ccc(NC(=O)C(=O)c4c(-c5ccccc5)cc5n4CCCC5)c(C)c3)CC2)c1", "< 1 µg/mL"],
  ["Cc1cc(C)nc(N2CCN(c3ccc(NC(=O)C(=O)c4c(C5CCN(C)CC5)cc5n4CCCC5)cc3)CC2)c1", "> 10 µg/mL"]
]}

Record MIC per entry; entries follow.
1. Cc1cc(C)nc(N2CCN(c3ccc(NC(=O)C(=O)c4c(C5CCOCC5)cc5n4CCCC5)cc3)CC2)c1
2. O=C(Nc1ccc(N2CCN(c3ccc(CN4CCOCC4)cn3)CC2)cc1)C(=O)c1c(-c2ccccc2)cc2n1CCCC2

**A:**
< 1 µg/mL
< 1 µg/mL

**Q:** # query: MIC of entry Cc1cc(C)nc(N2CCN(c3ccc(NC(=O)C(=O)c4c(-c5ccccc5)cc5n4CCCC5)cc3)CC2)c1
**A:** < 1 µg/mL

====

Tested on: Aspergillus flavus
Experiment: Measurement of Minimum Inhibitory Concentrations (MICs), A. flavus
Type: cell-based
Details: RPMI medium containing 2% glucose, 0.135M MOPS buffer, banded into grades
Please respond with reported MIC for every item in the list.

{"columns": ["testSmiles", "MIC"],
 "data": [
  ["Cc1cc(C)nc(N2CCC(O)(c3ccc(NC(=O)C(=O)c4c(-c5ccccc5)cc5n4CCCC5)cc3)CC2)c1", "< 1 µg/mL"],
  ["Cc1cc(C)nc(N(C)CCCN(C)c2ccc(NC(=O)C(=O)c3c(-c4ccccc4)cc4n3CCCC4)cc2)c1", "< 1 µg/mL"],
  ["Cc1cc(C)nc(N2CCN(c3ccc(NC(=O)C(=O)c4c(-c5ccccc5)cc5n4CCCC5)cc3O)CC2)c1", "< 1 µg/mL"],
  ["CCc1ccnc(N2CCN(c3ccc(NC(=O)C(=O)c4c(-c5ccccc5)cc5n4CCCC5)cc3)CC2)c1", "< 1 µg/mL"],
  ["O=C(NC1CCN(c2ccccc2)CC1)C(=O)c1c(-c2ccccc2)cc2n1CCCC2", "> 10 µg/mL"],
  ["Cc1cc(C)nc(N2CCN(c3ccc(NC(=O)C(=O)c4c(C5CCN(C)CC5)cc5n4CCCC5)cc3)CC2)c1", "> 10 µg/mL"]
]}

Now, please, on to the next compound.
**Q:** # query: MIC of entry Cc1cc(C)nc(N2CCN(c3ccc(NC(=O)C(=O)c4c(-c5ccccc5)cc5n4CCCC5)cc3C)CC2)c1
**A:** < 1 µg/mL

====

System: Aspergillus niger
Test: Measurement of Minimum Inhibitory Concentrations (MICs), A. niger
Assay type: cell-based
Settings: RPMI medium containing 2% glucose, 0.135M MOPS buffer, banded into grades
Please respond with reported MIC for every item in the list.

{"columns": ["compound", "MIC"],
 "data": [
  ["Cc1cc(C)nc(N2CCN(c3ccc(NC(=O)C(=O)c4c(-c5ccccc5)cc5n4CCCC5)cc3COCCCN3CCOCC3)CC2)c1 [Example 26]", "> 10 µg/mL"],
  ["Cc1cc(C)nc(N2CCN(c3ccc(NC(=O)C(=O)c4c(-c5ccccc5)cc5n4CCCC5)cc3C)CC2)c1 [Example 22]", "< 1 µg/mL"],
  ["Cc1cc(C)nc(N2CCN(c3ccc(NC(=O)C(=O)c4c(-c5ccccc5)cc5n4CCCC5)c(C)c3)CC2)c1 [Example 20]", "< 1 µg/mL"],
  ["Cc1cc(C)nc(N2CCN(c3ccc(NC(=O)C(=O)c4c(C5CCN(C)CC5)cc5n4CCCC5)cc3)CC2)c1 [Example 11]", "> 10 µg/mL"]
]}

Record MIC per entry; entries follow.
1. CCc1cccc(N2CCN(c3ccc(NC(=O)C(=O)c4c(-c5ccccc5)cc5n4CCCC5)cc3)CC2)n1 [Example 15]
2. Cc1cc(C)nc(N2CCN(c3ccc(N(C)C(=O)C(=O)c4c(-c5ccccc5)cc5n4CCCC5)cc3)CC2)c1 [Example 6]
3. Cc1cc(C)nc(N2CCN(c3ccc(NC(=O)C(=O)c4c(C5CCOCC5)cc5n4CCCC5)cc3)CC2)c1 [Example 10]

**A:**
1: < 1 µg/mL; 2: > 10 µg/mL; 3: < 1 µg/mL

Record MIC per entry; entries follow.
1. C=C(C)CN1CCN(c2ccc(NC(=O)C(=O)c3c(-c4ccccc4)cc4n3CCCC4)cc2)CC1 [Example 1]
2. CCc1ccnc(N2CCN(c3ccc(NC(=O)C(=O)c4c(-c5ccccc5)cc5n4CCCC5)cc3)CC2)c1 [Example 17]

**A:**
["< 1 µg/mL", "< 1 µg/mL"]

====

System: Aspergillus flavus
Experiment: Measurement of Minimum Inhibitory Concentrations (MICs), A. flavus
Assay type: cell-based
Details: RPMI medium containing 2% glucose, 0.135M MOPS buffer, banded into grades
reportedEndpoint: MIC

{"columns": ["testSmiles", "MIC"],
 "data": [
  ["O=C(Nc1ccc2c(c1)OCC2)C(=O)c1c(-c2ccccc2)cc2n1CCCC2", "1 to 10 µg/mL"],
  ["COCc1cc(N2CCN(c3cc(C)cc(C)n3)CC2)ccc1NC(=O)C(=O)c1c(-c2ccccc2)cc2n1CCCC2", "1 to 10 µg/mL"],
  ["CCc1cccc(N2CCN(c3ccc(NC(=O)C(=O)c4c(-c5ccccc5)cc5n4CCCC5)cc3)CC2)n1", "< 1 µg/mL"]
]}

Now, please, on to the next molecule.
**Q:** # query: MIC of entry Cc1cc(C)nc(N2CCN(c3ccc(N(C)C(=O)C(=O)c4c(-c5ccccc5)cc5n4CCCC5)cc3)CC2)c1
**A:** > 10 µg/mL
